Where do the numbers come from? From a protein production outcome set (Wang et al. 2014).

# TEST_METHOD_NOTES: label from the status in PepcDB records

>  <SEQUENCE_RECORD>
MEKSLLVIVRHKPGRTRLLIRALQSINDQTFKKINIIIFCMEEELKCHNVDDFYLKELSNIYSVIYDENCIFNAIKMSESNYLCFMDDDDSWAPEYVSRLLSVLANIQSTYSSVNAIACHTNKVAEIAENNRIIINSTQPWNHYLNAGPVSFDVIYYRNSIPLSSCLFDRNSVIDVIESHKLSSPAFFWPFFIHYLAENDVWILPEALAFYHFRENDDFEFGNYTVINNELFDIECKIAENKMMRSIDDSSLLNVLLSNIANNSLFHKISYIENKIK

>  <protein production>
failed

$$$$
>  <SEQUENCE_RECORD>
MRTALLQNLFSLFPFDLHGDCDVPPARDGIRVSCIINFYGRLNVLAGILWSLAQQDFPRSAFEVILVEDRGGSDEGRALAEEFSSRLPIVYAPLDKQYGLMGYSRNFGLERSRGEFILFLDDDTIILQDDFLKTMVAYFDAQPGVSAIMPHGEASFAFVDDRYDFHDPFFMTSRCTAYRRTVLASLGGFMSSFIGQEDVEFVIRFHAAGNRCAAVPQLAYRHPPLYVTNLGKPMAVGSSFYGIRKRYPLVTWLLAVVNCSRHLPLVLAPSRKYREMGRFGLGFLWGVLTAPFRSGSLNYRLEHHHHHH

>  <protein production>
failed

$$$$
